Data provenance is patent US9682978B2.

target: HDM2 (Homo sapiens); construct: Thioredoxin (N); made in house; host or cells: E. coli BL21(DE3)Rosetta (pET32a); experiment: HDM2 FRET assay (inhibition of p53 peptide binding to HDM2); conditions: Table 3; truncated HDM2 residues 17 to 125, 0.5 nM HDM2, 3 nM FITC labeled 8-mer peptide, two hour incubation
Sequence (Q00987 17-125): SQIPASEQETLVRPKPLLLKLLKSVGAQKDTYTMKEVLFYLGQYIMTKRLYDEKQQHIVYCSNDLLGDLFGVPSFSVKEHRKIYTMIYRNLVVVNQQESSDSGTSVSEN
measuredParameter: pIC50
Remember the convention: pIC50 equals -log10 of concentration in molar.

* CC([C@H]1CC[C@H](C)CC1)n1cnc2nc(-c3noc(=O)[nH]3)nc(N[C@H](C)C3CCC3)c21 (single isomer, unassigned) [Example 3.17] | 6.38
* C[C@@H]1CC[C@@H](Cn2cnc3nc(-c4noc(=O)[nH]4)nc(-c4cccc(Cl)c4)c32)CC1(F)F (single isomer, unassigned) [Example 3.16] | 6.07
* CC([C@H]1CC[C@H](C)CC1)n1cnc2nc(-c3noc(=O)[nH]3)nc(N[C@H](C)C3CCC3)c21 (stereo partly shown) [Example 3.18] | 7.77
* CCC1CCC(Cn2cnc3nc(C(=O)O)nc(N[C@H](C)C4CCC4)c32)C1 (single isomer, unassigned) [Example 3.12] | 6.84
* CC1=C(F)CC(Cn2cnc3nc(-c4noc(=O)[nH]4)nc(N[C@H](C)C4CCC4)c32)CC1 (mixture of isomers) | 6.83

input: Value wanted: pIC50 (HDM2 (Homo sapiens)) of entry CC1CCC(Cn2cnc3nc(-c4noc(=O)[nH]4)nc(N[C@H](C)C4CCC4)c32)C1 (mixture of isomers)
output: 5.79

input: Value wanted: pIC50 (HDM2 (Homo sapiens)) of entry C[C@@H](Nc1nc(-c2noc(=O)[nH]2)nc2ncn(CC3CCC4(CC3)CC4)c12)C1CCC1
output: 5.84

input: Value wanted: pIC50 (HDM2 (Homo sapiens)) of entry O=c1[nH]c(-c2nc(-c3cccc(Cl)c3)c3c(ncn3C[C@H]3CC[C@H](C(F)(F)F)CC3)n2)no1
output: 6.36

input: Value wanted: pIC50 (HDM2 (Homo sapiens)) of entry CCC1CCC(Cn2cnc3nc(-c4noc(=O)[nH]4)nc(N[C@H](C)C4CCC4)c32)C1 (mixture of isomers) [Example 3.10]
output: 6.50

input: Value wanted: pIC50 (HDM2 (Homo sapiens)) of entry C[C@@H]1CC[C@@H](Cn2cnc3nc(-c4noc(=O)[nH]4)nc(-c4cccc(Cl)c4)c32)CC1(F)F (single isomer, unassigned) [Example 3.15]
output: 6.37

input: Value wanted: pIC50 (HDM2 (Homo sapiens)) of entry CCC1CCC(Cn2cnc3nc(C(=O)O)nc(N[C@H](C)C4CCC4)c32)C1 (single isomer, unassigned) [Example 3.11]
output: 6.17

input: Value wanted: pIC50 (HDM2 (Homo sapiens)) of entry C=C1CCC(Cn2cnc3nc(-c4noc(=O)[nH]4)nc(N[C@H](C)C4CCC4)c32)CC1
output: 6.27

input: Value wanted: pIC50 (HDM2 (Homo sapiens)) of entry C[C@@H](Nc1nc(-c2noc(=O)[nH]2)nc2ncn(C[C@H]3CC[C@H](C(F)(F)F)CC3)c12)C1CCC1
output: 6.94
